meta.source: ChEMBL document CHEMBL1151012

- Test system: Klebsiella pneumoniae
- method summary: In vitro antibacterial activity against Klebsiella pneumoniae NCTC-9632 bacteria was determined
- Type: functional
parameter measured: MIC (µg/mL)
Give the quantity in µg/mL, number only.

1. Nc1nc(/C(=N/OCc2cc(=O)c(O)cn2O)C(=O)N[C@@H]2C(=O)N3C(C(=O)O)=C(CSc4cnns4)SC[C@H]23)cs1 (stereo in doubt): 0.1
2. Cc1nc(SCC2=C(C(=O)O)N3C(=O)[C@@H](NC(=O)/C(=N\OCc4cc(=O)c(O)cn4O)c4csc(N)n4)[C@H]3CS2)sc1CC(=O)O: 0.05

Request: Quick check: MIC on Klebsiella pneumoniae, item CC(C)(O/N=C(\C(=O)N[C@@H]1C(=O)N2C(C(=O)[O-])=C(C[n+]3ccccc3)CS[C@H]12)c1csc(N)n1)C(=O)O ?
Result: 0.05
